# tested.on: hNav1.7 (Homo sapiens (Human), UniProt Q15858)
# Sequence (Q15858 other isoform, or with tags, fused parts or gaps): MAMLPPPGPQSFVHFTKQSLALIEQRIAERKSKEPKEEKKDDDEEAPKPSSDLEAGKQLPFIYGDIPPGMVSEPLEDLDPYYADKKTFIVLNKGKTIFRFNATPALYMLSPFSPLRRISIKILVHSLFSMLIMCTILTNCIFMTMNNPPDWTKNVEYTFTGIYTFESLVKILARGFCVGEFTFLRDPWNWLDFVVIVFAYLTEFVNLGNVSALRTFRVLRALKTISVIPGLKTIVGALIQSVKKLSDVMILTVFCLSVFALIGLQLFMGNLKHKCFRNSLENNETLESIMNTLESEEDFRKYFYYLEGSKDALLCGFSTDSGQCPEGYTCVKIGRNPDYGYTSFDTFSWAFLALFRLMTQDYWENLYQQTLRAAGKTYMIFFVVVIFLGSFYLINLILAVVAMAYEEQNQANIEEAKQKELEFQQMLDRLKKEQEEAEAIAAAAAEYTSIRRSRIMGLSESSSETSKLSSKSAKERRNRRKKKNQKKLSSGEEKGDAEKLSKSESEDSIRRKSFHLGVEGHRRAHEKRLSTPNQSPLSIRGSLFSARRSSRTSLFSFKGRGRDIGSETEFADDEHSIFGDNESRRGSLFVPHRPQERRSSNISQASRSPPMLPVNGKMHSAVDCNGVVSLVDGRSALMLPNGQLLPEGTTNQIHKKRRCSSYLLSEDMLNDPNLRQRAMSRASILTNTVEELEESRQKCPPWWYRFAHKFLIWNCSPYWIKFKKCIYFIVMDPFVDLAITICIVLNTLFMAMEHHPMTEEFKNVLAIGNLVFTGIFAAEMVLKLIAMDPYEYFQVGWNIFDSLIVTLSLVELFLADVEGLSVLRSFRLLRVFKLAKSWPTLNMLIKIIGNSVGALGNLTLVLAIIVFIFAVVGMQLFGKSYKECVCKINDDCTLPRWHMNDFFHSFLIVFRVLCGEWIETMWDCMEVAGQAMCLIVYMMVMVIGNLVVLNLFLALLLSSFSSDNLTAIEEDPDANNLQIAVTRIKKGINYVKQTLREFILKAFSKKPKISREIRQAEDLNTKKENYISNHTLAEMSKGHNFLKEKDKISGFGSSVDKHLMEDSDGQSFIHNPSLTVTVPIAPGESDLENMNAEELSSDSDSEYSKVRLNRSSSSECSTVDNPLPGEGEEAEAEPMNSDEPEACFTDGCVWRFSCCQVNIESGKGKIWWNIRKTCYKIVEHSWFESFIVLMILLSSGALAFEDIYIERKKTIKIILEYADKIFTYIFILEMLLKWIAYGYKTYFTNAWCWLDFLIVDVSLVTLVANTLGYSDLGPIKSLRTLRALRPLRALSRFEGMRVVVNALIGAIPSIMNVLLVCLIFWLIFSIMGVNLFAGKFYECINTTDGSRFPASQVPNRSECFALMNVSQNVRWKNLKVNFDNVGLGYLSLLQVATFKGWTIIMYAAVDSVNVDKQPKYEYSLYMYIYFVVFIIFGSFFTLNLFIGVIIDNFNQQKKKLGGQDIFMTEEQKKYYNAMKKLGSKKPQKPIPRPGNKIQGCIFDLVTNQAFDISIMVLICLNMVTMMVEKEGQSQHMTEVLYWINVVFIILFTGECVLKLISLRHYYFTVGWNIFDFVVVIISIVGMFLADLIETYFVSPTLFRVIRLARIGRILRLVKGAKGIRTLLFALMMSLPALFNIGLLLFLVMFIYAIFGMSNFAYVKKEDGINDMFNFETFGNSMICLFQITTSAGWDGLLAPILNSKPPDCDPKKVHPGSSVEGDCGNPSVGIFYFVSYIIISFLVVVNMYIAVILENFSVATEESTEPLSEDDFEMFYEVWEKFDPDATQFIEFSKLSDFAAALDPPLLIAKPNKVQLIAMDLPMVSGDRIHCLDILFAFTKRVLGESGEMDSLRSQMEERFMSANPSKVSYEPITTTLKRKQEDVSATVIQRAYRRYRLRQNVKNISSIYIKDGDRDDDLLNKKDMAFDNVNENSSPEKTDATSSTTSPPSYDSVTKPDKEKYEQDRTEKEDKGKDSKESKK
# Sequence (Q07699 19-218 partner): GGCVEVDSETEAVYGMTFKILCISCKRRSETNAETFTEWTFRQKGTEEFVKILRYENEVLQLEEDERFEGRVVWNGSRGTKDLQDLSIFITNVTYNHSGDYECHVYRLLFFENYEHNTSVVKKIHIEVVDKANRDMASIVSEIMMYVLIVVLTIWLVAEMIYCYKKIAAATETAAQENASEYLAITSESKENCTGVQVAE
# experiment.summary: Tritiated sulfonamide competitive binding to membranes from cells expressing hNav1.7 and the β1 subunit
# recorded.conditions: read-out: Ligand Binding Assay; 100 pM [3H]compound, membranes with hNav1.7 and β1 subunit, 18 h, room temperature
pIC50: −log10 of the molar value.
measure.name: pIC50

C[C@H](c1cc(Cl)cc(Cl)c1F)N1CCC(COc2cc(F)c(C(=O)NS(C)(=O)=O)cc2C2CC2)CC1 (single isomer, unassigned) : 8.54

(P) O=C(NS(=O)(=O)C(F)F)c1cc(C2CC2)c(OCC2CN(C(c3ccccc3)c3ccccc3)C2)cc1F
(Q) C[C@@H](c1ccc(Cl)cc1Cl)N1CCC(COc2cc(F)c(C(=O)NS(C)(=O)=O)cc2C2CC2)CC1
Parameter check: reported pIC50 is higher for which label, P or Q ? Your answer should be the label of the entry you select. Q
(Q: 8.66, P: 7.33)

====

# tested.on: hNav1.7 (Homo sapiens (Human), UniProt Q15858)
# experiment.summary: Tritiated sulfonamide competitive binding to membranes from cells expressing hNav1.7 and the β1 subunit;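 note: Filter-bound radioactivity counted by liquid scintillation, nonspecific binding defined with excess unlabelled ligand, IC50 fitted to percent inhibition of specific binding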
# recorded.conditions: read-out: Ligand Binding Assay; 100 pM [3H]compound, membranes with hNav1.7 and β1 subunit, 18 h, room temperature
Counter-ions that a name gives are not always drawn.
measure.name: IC50 (µM)

Example results:
CS(=O)(=O)NC(=O)c1cc(C2CC2)c(OCC2CCN(C(=O)c3ccccc3C(F)(F)F)CC2)cc1F [Example 255] : 1.1
CS(=O)(=O)NC(=O)c1cc(C2CC2)c(OCC2CCN(Cc3nc(-c4ccccc4Cl)no3)CC2)cc1F [Example 410, trifluoroacetic acid salt] : 0.0109

(A) CS(=O)(=O)N1CCC(COc2cc(F)c(C(=O)NS(=O)(=O)C3CC3)cc2C2CC2)CC1 [Example 394]
(B) C[C@H](c1cc(Cl)cc(C(F)(F)F)c1)N1CCC(COc2cc(F)c(C(=O)NS(C)(=O)=O)cc2C2CC2)CC1 (single isomer, unassigned) [Example 276]
Endpoint returns the identifier whose IC50 is numerically larger, either A or B . When you have decided, please share the label of that item. A
(A: 6.01 µM, B: 0.0057 µM)

====

# tested.on: hNav1.7 (Homo sapiens (Human))
# experiment.summary: Tritiated sulfonamide competitive binding to membranes from cells expressing hNav1.7 and the β1 subunit
# recorded.conditions: read-out: Ligand Binding Assay; 100 pM [3H]compound, membranes with hNav1.7 and β1 subunit, 18 h, room temperature
Structures can show the parent of a compound that is named as a salt.
measure.name: IC50 (nM)

Take a look at these entries with their results.
CS(=O)(=O)NC(=O)c1cc(C2CC2)c(OCC2CCN(Cc3ccc(Cl)cc3)CC2)cc1F : 45.1
CS(=O)(=O)NC(=O)c1cc(C2CC2)c(O[C@@H]2CCCN(CC3(C(F)(F)F)CCC3)C2)cc1F : 6.4
C[C@@H]1CC[C@@H](COc2cc(F)c(C(=O)NS(C)(=O)=O)cc2C2CC2)CN1Cc1cc(Cl)cc(Cl)c1 [Example 341, trifluoroacetic acid salt] : 4.4

(A) COC[C@@H](c1cc(Cl)cc(Cl)c1)N1CCC(C)(COc2cc(F)c(C(=O)NS(C)(=O)=O)cc2C2CC2)CC1 (single isomer, unassigned)
(B) C[C@H](c1ccc(OC(F)(F)F)cc1)N1CCC(C)(COc2cc(F)c(C(=O)NS(C)(=O)=O)cc2C2CC2)CC1 (single isomer, unassigned)
Among A and B , whose measured IC50 is the smaller figure? // return label of chosen record A
(A: 3.9 nM, B: 39 nM)

(A) CS(=O)(=O)NC(=O)c1cc(C2CC2)c(OCC2CN([C@@H](c3ccccc3)c3cccc(C#N)c3)C2)cc1F
(B) COc1ccc(CN2CCC[C@@H](Oc3cc(F)c(C(=O)NS(=O)(=O)C4CC4)cc3C3CC3)C2)cc1F
(C) CC1(COc2cc(F)c(C(=O)NS(C)(=O)=O)cc2C2CC2)CCN(Cc2ccc(Cl)c(Cl)c2)CC1
(D) O=C(NS(=O)(=O)C1CC1)c1cc(C2CC2)c(OCC2CCN(C(=O)c3cc(Cl)cc(Cl)c3)CC2)cc1F
(E) O=C(NS(=O)(=O)C1CC1)c1cc(C2CC2)c(OCC2CCN(C(=O)c3ccccc3C(F)(F)F)CC2)cc1F
Ranking field: IC50; order: falling. Output the labels ranked as instructed. E, A, D, B, C
